Each recorded value in this set is attributed to patent US20190270826A1.

Biological target: T1, recombinant human IL1RAP ECD (human, UniProt Q9NPH3 21-367)
T1 construct: His-tagged; also called hIL1RAP-ECD; rhuIL1RAP
T1 sequence: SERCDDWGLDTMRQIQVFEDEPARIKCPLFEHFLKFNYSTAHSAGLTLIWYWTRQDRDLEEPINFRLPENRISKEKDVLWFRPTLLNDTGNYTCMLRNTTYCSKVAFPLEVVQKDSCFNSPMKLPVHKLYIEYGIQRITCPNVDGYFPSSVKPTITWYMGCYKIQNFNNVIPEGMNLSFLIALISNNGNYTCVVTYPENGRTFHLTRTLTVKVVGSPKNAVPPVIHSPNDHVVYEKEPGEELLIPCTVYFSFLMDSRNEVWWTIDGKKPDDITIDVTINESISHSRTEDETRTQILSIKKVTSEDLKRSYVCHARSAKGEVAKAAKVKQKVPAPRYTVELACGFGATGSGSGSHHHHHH
Assay: SPR, summary
For each of the binders below, state its pKd.
Give bare numbers, as −log10 of the molar value.

Solved entries:
binder	experimentalValue
IAPB61 (antibody, human IgG4 S228P, kappa, F234A L235A, V domains shown, IgG4-PAA; whole chains) VH: QLQLQESGPGLVKPSETLSLTCTVSGVSISSSTYYWGWLRQPPGMGLEWTGSIYFTGNTYYNPSLKSRVTISVDTSRNQFSLKLSSVTAADTAVYYCGSLFGDYGYFDYWGQGTLVTVSS VL: EIVMTQSPATLSVPPGERATLSCRASQFISSNLAWYQQKPGQAPRLLIYGASTRATGIPARFSGSGSGTDFTLTISSLQSEDFAVYYCQQYNNWPSTFGPGTKVDIKR	7.76
IAPB47 (antibody, human IgG4 S228P, kappa, F234A L235A, V domains shown, IgG4-PAA; whole chains) VH: EVQLVQSGAEVKKPGESLKISCKGSGYSFTSYWIGWVRQMPGKGLEWMGIIYPSDSYTRYSPSFQGQVTISADKSISTAYLQWSSLKASDTAMYYCARRNSAENYADLDYWGQGTLVTVSS VL: EIVLTQSPGTLSLSPGERATLSCRASQSISNDLNWYQQKPGKAPKLLIYYASSLQSGVPSRFSGSGSGTDFTLTINSLQPEDFATYYCQQSFTAPLTFGQGTKVEIKR	8.91

Exam item: // query pKd value for entry IAPB04 (antibody, human IgG4 S228P, kappa, F234A L235A, V domains shown, IgG4-PAA; also called IAPB4; phage hit B4) VH: QVQLVQSGAEVKKPGSSVKVSCKASGGTFSSYAISWVRQAPGQGLEWMGGISAIFGTANYAQKFQGRVTITADESTSTAYMELSSLRSEDTAVYYCARHLHNGIHLDYWGQGTLVTVSS VL: EIVLTQSPATLSLSPGERATLSCRASQSVSNFLAWYQQKPGQAPRLLIYGASNRATGIPARFSGSGSGTDFTLTISSLEPEDFAVYYCQQGKHWPWTFGQGTKVEIKR
Marked response: 8.25
